Attribution: the supplement of paper PMC6555819

Tested on: PPARg DBDmut IVT, anti-PPARg (DBD mutation: PPARg1 K132A/R137A, NR concentration 270 nM)
assay details: PBM binding z-score (relative to random genomic background probes); higher = stronger binding; sequences stand for … in GC…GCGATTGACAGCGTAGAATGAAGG
endpoint: PBM binding z-score

input: What PBM binding z-score value was documented for this sequence, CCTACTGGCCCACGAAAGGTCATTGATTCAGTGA ?
output: -1.14

====

System: RARg homodimer (NR concentration 270 nM)
assay details: PBM binding z-score (relative to random genomic background probes); higher = stronger binding; sequences stand for … in GC…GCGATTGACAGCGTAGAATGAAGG
So basically: PBM binding z-score at 3 or higher? That is 1. Lower than 3? That is 0.

Known results for sequences:
[[record]]
primary_sequence = "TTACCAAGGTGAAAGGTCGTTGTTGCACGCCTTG"
label_value = 0

[[record]]
primary_sequence = "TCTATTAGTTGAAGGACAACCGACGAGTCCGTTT"
label_value = 0

[[record]]
primary_sequence = "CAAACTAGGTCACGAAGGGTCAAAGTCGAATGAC"
label_value = 1

[[record]]
primary_sequence = "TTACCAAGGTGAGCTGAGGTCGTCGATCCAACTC"
label_value = 0


input: In plain terms: is recorded PBM binding z-score at least 3 for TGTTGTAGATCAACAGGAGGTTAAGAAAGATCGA ?
output: 0

input: In plain terms: is recorded PBM binding z-score at least 3 for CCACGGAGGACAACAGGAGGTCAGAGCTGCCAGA ?
output: 1

====

Test system: PPARg:RXRa DBDmut IVT, anti-RXR (DBD mutation: RXRa K156A/R161A, NR concentration 270 nM, RXRa partner concentration 90 nM)
assay details: PBM binding z-score (relative to random genomic background probes); higher = stronger binding; sequences stand for … in GC…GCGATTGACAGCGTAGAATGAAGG
So basically: PBM binding z-score at 0.7 or higher? That is MET. Lower than 0.7? That is NOT MET.

Known results for sequences:
[[record]]
primary_sequence = "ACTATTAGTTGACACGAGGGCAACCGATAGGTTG"
label_value = "NOT MET"

[[record]]
primary_sequence = "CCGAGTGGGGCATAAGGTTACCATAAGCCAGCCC"
label_value = "MET"


input: In plain terms: is recorded PBM binding z-score at least 0.7 for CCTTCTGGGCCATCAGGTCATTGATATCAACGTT ?
output: MET

input: In plain terms: is recorded PBM binding z-score at least 0.7 for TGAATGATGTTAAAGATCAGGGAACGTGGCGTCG ?
output: NOT MET

input: In plain terms: is recorded PBM binding z-score at least 0.7 for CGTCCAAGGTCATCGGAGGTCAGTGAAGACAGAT ?
output: MET

====

Test system: PPARg homodimer (NR concentration 180 nM)
assay details: PBM binding z-score (relative to random genomic background probes); higher = stronger binding; sequences stand for … in GC…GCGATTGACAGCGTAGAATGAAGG
So basically: PBM binding z-score at 0.8 or higher? That is criterion met. Lower than 0.8? That is criterion not met.

Known results for sequences:
[[record]]
primary_sequence = "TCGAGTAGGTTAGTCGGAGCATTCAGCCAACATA"
assay_system = "PPARg homodimer (NR concentration 180 nM)"
label_value = "criterion not met"

[[record]]
primary_sequence = "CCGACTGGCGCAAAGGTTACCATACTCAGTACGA"
assay_system = "PPARg homodimer (NR concentration 180 nM)"
label_value = "criterion not met"

[[record]]
primary_sequence = "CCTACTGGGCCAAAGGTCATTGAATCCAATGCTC"
assay_system = "PPARg homodimer (NR concentration 180 nM)"
label_value = "criterion met"

[[record]]
primary_sequence = "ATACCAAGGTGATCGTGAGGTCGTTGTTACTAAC"
assay_system = "PPARg homodimer (NR concentration 180 nM)"
label_value = "criterion met"

[[record]]
primary_sequence = "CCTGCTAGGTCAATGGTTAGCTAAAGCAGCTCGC"
assay_system = "PPARg homodimer (NR concentration 180 nM)"
label_value = "criterion met"


input: In plain terms: is recorded PBM binding z-score at least 0.8 for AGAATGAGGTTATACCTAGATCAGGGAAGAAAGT ?
output: criterion not met

input: In plain terms: is recorded PBM binding z-score at least 0.8 for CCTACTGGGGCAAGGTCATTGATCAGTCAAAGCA ?
output: criterion met

====

Tested on: LXRa homodimer (NR concentration 270 nM)
assay details: PBM binding z-score (relative to random genomic background probes); higher = stronger binding; sequences stand for … in GC…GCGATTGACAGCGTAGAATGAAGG
So basically: PBM binding z-score at 0.2 or higher? That is yes (1). Lower than 0.2? That is no (0).

[[record]]
primary_sequence = "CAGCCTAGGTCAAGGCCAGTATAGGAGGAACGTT"
assay_system = "LXRa homodimer (NR concentration 270 nM)"
label_value = "no (0)"

[[record]]
primary_sequence = "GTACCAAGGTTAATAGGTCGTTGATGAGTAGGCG"
assay_system = "LXRa homodimer (NR concentration 270 nM)"
label_value = "yes (1)"


input: In plain terms: is recorded PBM binding z-score at least 0.2 for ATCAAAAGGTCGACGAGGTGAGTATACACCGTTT ?
output: yes (1)

input: In plain terms: is recorded PBM binding z-score at least 0.2 for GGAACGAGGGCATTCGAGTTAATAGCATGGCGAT ?
output: no (0)

input: In plain terms: is recorded PBM binding z-score at least 0.2 for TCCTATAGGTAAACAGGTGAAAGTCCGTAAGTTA ?
output: yes (1)

input: In plain terms: is recorded PBM binding z-score at least 0.2 for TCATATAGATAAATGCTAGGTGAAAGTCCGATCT ?
output: no (0)

====

Tested on: PPARg DBDmut:RXRa IVT, anti-PPARg (DBD mutation: PPARg1 K132A/R137A, NR concentration 270 nM, RXRa partner concentration 90 nM)
assay details: PBM binding z-score (relative to random genomic background probes); higher = stronger binding; sequences stand for … in GC…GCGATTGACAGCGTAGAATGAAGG
So basically: PBM binding z-score at 0.2 or higher? That is Condition met. Lower than 0.2? That is Condition not met.

[[record]]
primary_sequence = "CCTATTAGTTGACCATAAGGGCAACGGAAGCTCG"
label_value = "Condition met"

[[record]]
primary_sequence = "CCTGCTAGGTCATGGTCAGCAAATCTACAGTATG"
label_value = "Condition not met"

[[record]]
primary_sequence = "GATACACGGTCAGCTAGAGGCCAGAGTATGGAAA"
label_value = "Condition not met"


input: In plain terms: is recorded PBM binding z-score at least 0.2 for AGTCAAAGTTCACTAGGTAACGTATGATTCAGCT ?
output: Condition met

input: In plain terms: is recorded PBM binding z-score at least 0.2 for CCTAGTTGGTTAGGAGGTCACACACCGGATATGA ?
output: Condition met

input: In plain terms: is recorded PBM binding z-score at least 0.2 for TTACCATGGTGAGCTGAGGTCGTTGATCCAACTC ?
output: Condition not met

====

Test system: RARa homodimer (NR concentration 270 nM)
assay details: PBM binding z-score (relative to random genomic background probes); higher = stronger binding; sequences stand for … in GC…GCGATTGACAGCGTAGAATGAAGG
So basically: PBM binding z-score at 0.4 or higher? That is TRUE. Lower than 0.4? That is FALSE.

Known results for sequences:
[[record]]
primary_sequence = "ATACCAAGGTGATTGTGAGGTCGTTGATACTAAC"
label_value = "TRUE"

[[record]]
primary_sequence = "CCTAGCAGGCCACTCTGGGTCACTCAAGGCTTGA"
label_value = "FALSE"

[[record]]
primary_sequence = "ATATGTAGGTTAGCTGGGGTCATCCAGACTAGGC"
label_value = "TRUE"

[[record]]
primary_sequence = "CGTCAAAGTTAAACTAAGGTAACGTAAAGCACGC"
label_value = "FALSE"

[[record]]
primary_sequence = "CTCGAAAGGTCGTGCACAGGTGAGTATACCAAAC"
label_value = "TRUE"


input: In plain terms: is recorded PBM binding z-score at least 0.4 for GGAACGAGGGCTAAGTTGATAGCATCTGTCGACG ?
output: FALSE

input: In plain terms: is recorded PBM binding z-score at least 0.4 for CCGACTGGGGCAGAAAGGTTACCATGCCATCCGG ?
output: FALSE

input: In plain terms: is recorded PBM binding z-score at least 0.4 for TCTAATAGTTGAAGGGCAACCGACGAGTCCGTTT ?
output: FALSE
